Test system: Yap1 mRNA
Assay: Antisense inhibition of human Yap1 in A-431 cells by cEt gapmers, single dose (Example 3, RTS36584)
Type: cell-based
Settings: Table 11; A-431 cells, 5,000 cells per well, free uptake, 2,000 nM oligonucleotide, approx. 48 hours; primer probe set RTS36584; Yap1 mRNA normalized to RIBOGREEN, percent of untreated control
Strand notation (5' to 3'): a small letter for the sugar, then the base; units joined by * are phosphorothioate-linked, units joined directly phosphodiester-linked; [ ] holds rarer units or linkages, { } end groups; capitals alone tell only the bases. k = constrained ethyl (cEt); [5mC] = 5-methylcytosine; d = 2'-deoxy (DNA)
Cut-off 4 % UTC on YAP1 (% UTC), inclusive. At or above means t; below means f.

Solved entries:
> print(dat)
                                  substance  target.under.test  assigned.class
1  958563 (kA*kG*k[5mC]*dT*dT*dT*dT*dG*d[5mC]*d[5mC]*dA*dG*dG*kA*kG*kA; antisense) [Compound 958563]          Yap1 mRNA               f
2  958623 (antisense kT*kT*kG*dA*dT*dA*dT*dT*d[5mC]*d[5mC]*dG*d[5mC]*dA*kT*kT*kG) [Compound 958623]          Yap1 mRNA               f
3  958573 (kG*kG*k[5mC]*dA*dA*dA*dT*dT*dA*dT*dA*dG*dG*k[5mC]*kA*k[5mC]; antisense) [Compound 958573]          Yap1 mRNA               f

Query string: Form field: YAP1 (% UTC) at least 4 % UTC? Entry: 958458 (antisense kG*kT*kT*d[5mC]*dA*dT*d[5mC]*dT*dG*dG*dG*dA*d[5mC]*kA*kG*k[5mC]) [Compound 958458]
Result string: t

Query string: Form field: YAP1 (% UTC) at least 4 % UTC? Entry: 958538 (kA*kT*k[5mC]*d[5mC]*dA*dG*dG*dG*dT*d[5mC]*dA*dA*dT*kT*kT*kT; antisense) [Compound 958538]
Result string: t

###

Experiment: Tolerability in Balb/c mice, body and organ weights (Example 11)
Assay type: in vivo
Details: 50 mg/kg subcutaneously twice a week for four weeks, end of study
Strand notation (5' to 3'): a small letter for the sugar, then the base; units joined by * are phosphorothioate-linked, units joined directly phosphodiester-linked; [ ] holds rarer units or linkages, { } end groups; capitals alone tell only the bases. k = constrained ethyl (cEt); [5mC] = 5-methylcytosine; d = 2'-deoxy (DNA)
Cut-off 2 g on Liver weight, inclusive. At or above means rule met; below means rule not met.

Solved entries:
> print(dat)
                                  substance  assigned.class
1  715483 (k[5mC]*kT*k[5mC]*dT*dT*dT*dG*dG*dA*dA*dA*d[5mC]*d[5mC]*kA*kT*kT) [compound 715483]    rule not met
2  716454 (antisense k[5mC]*kG*kA*dG*dA*dT*dT*dT*dA*dA*dA*dT*dA*kA*kG*kG) [compound 716454]    rule not met
3  716424 (antisense kG*k[5mC]*kA*dA*dT*dG*dG*dA*d[5mC]*dA*dA*dG*dG*kA*kA*kG) [compound 716424]        rule met
4  715415 (k[5mC]*kG*kA*dA*d[5mC]*dA*dT*dG*d[5mC]*dT*dG*dT*dG*kG*kA*kG; antisense) [compound 715415]    rule not met

Query string: Form field: Liver weight at least 2 g? Entry: 715487 (kA*kT*kT*dA*d[5mC]*dT*dT*d[5mC]*dA*dT*dA*dG*d[5mC]*kT*kT*kA) [compound 715487]
Result string: rule not met

###

System: Yap1 mRNA
Assay: Antisense inhibition of human Yap1 in A-431 cells by cEt gapmers, single dose (Example 2, RTS4814)
Assay type: cell-based
Conditions: Table 22; Yap1 mRNA as percent of untreated control; 3-10-3 cEt gapmers; single dose
Protocol: Modified oligonucleotides were designed to target a Yap1 nucleic acid and were tested for their effect on Yap1 mRNA level in vitro. The modified oligonucleotides were tested in a series of experiments that had similar culture conditions. […] After a treatment period of approximately 48 hours, RNA was isolated from the cells and Yap1 mRNA levels were measured by quantitative real-time RTPCR. […] Yap1 mRNA levels were normalized to total RNA content, as measured by RIBOGREEN®. […]
Strand notation (5' to 3'): a small letter for the sugar, then the base; units joined by * are phosphorothioate-linked, units joined directly phosphodiester-linked; [ ] holds rarer units or linkages, { } end groups; capitals alone tell only the bases. k = constrained ethyl (cEt); [5mC] = 5-methylcytosine; d = 2'-deoxy (DNA)
Cut-off 10 % UTC on YAP1 (% UTC), inclusive. At or above means Met; below means Not met.

Solved entries:
> print(dat)
                                  substance  assigned.class
1  1074728 (antisense kT*kG*kA*dG*dG*dT*dA*dT*dA*dA*d[5mC]*dT*dG*kG*kG*k[5mC]) [Compound 1074728]         Not met
2  1075080 (antisense kA*kT*kT*dA*d[5mC]*dA*dA*dA*dG*dA*d[5mC]*dA*dG*k[5mC]*k[5mC]*k[5mC]) [Compound 1075080]             Met
3  1075144 (antisense kA*k[5mC]*k[5mC]*d[5mC]*dT*dA*dT*dA*dT*d[5mC]*d[5mC]*dT*dA*kT*kA*kT) [Compound 1075144]             Met
4  1076296 (kT*kA*kT*dA*dA*dA*dG*dA*d[5mC]*d[5mC]*d[5mC]*dA*dA*kT*kG*k[5mC]; antisense) [Compound 1076296]             Met
5  1075016 (antisense kT*k[5mC]*kA*dG*dA*dA*dT*dA*dA*dG*dT*dA*dT*kG*kA*kT) [Compound 1075016]             Met

Query string: Form field: YAP1 (% UTC) at least 10 % UTC? Entry: 1076392 (kT*kA*kT*dT*dA*dA*dT*d[5mC]*dA*dA*dA*dT*dA*kG*kG*kG; antisense) [Compound 1076392]
Result string: Met

Query string: Form field: YAP1 (% UTC) at least 10 % UTC? Entry: 1076136 (k[5mC]*kA*kA*d[5mC]*dA*dA*d[5mC]*d[5mC]*dT*d[5mC]*dA*dT*dG*kT*kA*kA; antisense) [Compound 1076136]
Result string: Met

Query string: Form field: YAP1 (% UTC) at least 10 % UTC? Entry: 1075944 (kT*kA*kT*dT*dA*dG*dG*dA*dA*d[5mC]*dA*dG*dA*kT*k[5mC]*kA; antisense) [Compound 1075944]
Result string: Met

Query string: Form field: YAP1 (% UTC) at least 10 % UTC? Entry: 1075688 (kG*kA*k[5mC]*dA*dA*dT*dA*dA*dA*d[5mC]*dA*dT*d[5mC]*kA*k[5mC]*k[5mC]; antisense) [Compound 1075688]
Result string: Met

Query string: Form field: YAP1 (% UTC) at least 10 % UTC? Entry: 1075304 (k[5mC]*kA*k[5mC]*dG*dG*dG*dT*dA*d[5mC]*d[5mC]*dA*dG*dA*kA*kA*kA; antisense) [Compound 1075304]
Result string: Met

Query string: Form field: YAP1 (% UTC) at least 10 % UTC? Entry: 1075784 (kA*kT*kT*dT*dT*dA*dT*dA*dG*dG*dG*d[5mC]*d[5mC]*kA*kT*kT; antisense) [Compound 1075784]
Result string: Not met

Query string: Form field: YAP1 (% UTC) at least 10 % UTC? Entry: 1075912 (kA*kG*kT*dT*dA*dT*dA*d[5mC]*dA*d[5mC]*dA*dA*d[5mC]*k[5mC]*kA*k[5mC]; antisense) [Compound 1075912]
Result string: Met

Query string: Form field: YAP1 (% UTC) at least 10 % UTC? Entry: 1074344 (antisense kT*kG*kA*dG*dA*d[5mC]*dA*dT*d[5mC]*d[5mC]*d[5mC]*dG*dG*kG*kA*kG) [Compound 1074344]
Result string: Met

Query string: Form field: YAP1 (% UTC) at least 10 % UTC? Entry: 1075112 (antisense kA*kT*kA*dT*dA*dG*dG*dA*dA*dT*dA*dT*dG*kG*kG*kT) [Compound 1075112]
Result string: Not met

Query string: Form field: YAP1 (% UTC) at least 10 % UTC? Entry: 1074952 (antisense kG*kT*kT*dT*dT*dT*dG*dT*d[5mC]*dA*dT*d[5mC]*dA*kG*kG*kT) [Compound 1074952]
Result string: Met

Query string: Form field: YAP1 (% UTC) at least 10 % UTC? Entry: 1075176 (antisense kA*kA*kT*dT*dA*d[5mC]*d[5mC]*d[5mC]*dG*dG*dG*dA*dA*k[5mC]*kT*kA) [Compound 1075176]
Result string: Met

Query string: Form field: YAP1 (% UTC) at least 10 % UTC? Entry: 1076488 (antisense kG*k[5mC]*k[5mC]*dA*dA*dT*dA*dA*dG*dA*dT*dA*dA*kG*kA*kA) [Compound 1076488]
Result string: Met

Query string: Form field: YAP1 (% UTC) at least 10 % UTC? Entry: 1076072 (k[5mC]*kA*k[5mC]*dA*dA*dA*dA*dA*d[5mC]*dT*dG*dG*dT*k[5mC]*kT*kG; antisense) [Compound 1076072]
Result string: Met

Query string: Form field: YAP1 (% UTC) at least 10 % UTC? Entry: 1075432 (antisense k[5mC]*kT*kA*dA*d[5mC]*dT*dA*dA*dA*d[5mC]*dT*dG*dA*kT*kT*k[5mC]) [Compound 1075432]
Result string: Met

Query string: Form field: YAP1 (% UTC) at least 10 % UTC? Entry: 1075464 (antisense k[5mC]*k[5mC]*kA*d[5mC]*dT*dA*dA*dA*d[5mC]*d[5mC]*dA*d[5mC]*d[5mC]*kT*kA*kA) [Compound 1075464]
Result string: Met

Query string: Form field: YAP1 (% UTC) at least 10 % UTC? Entry: 1074600 (antisense k[5mC]*kA*kG*d[5mC]*dT*dA*dA*d[5mC]*dT*d[5mC]*dA*dA*dA*kA*k[5mC]*k[5mC]) [Compound 1074600]
Result string: Met

Query string: Form field: YAP1 (% UTC) at least 10 % UTC? Entry: 1074792 (kA*kT*k[5mC]*dA*dA*dT*dG*dT*dG*d[5mC]*dT*d[5mC]*d[5mC]*kA*kT*k[5mC]; antisense) [Compound 1074792]
Result string: Not met

Query string: Form field: YAP1 (% UTC) at least 10 % UTC? Entry: 1075048 (antisense kG*kT*kA*dA*dA*dA*dT*dT*dA*dG*dA*d[5mC]*dT*k[5mC]*k[5mC]*k[5mC]) [Compound 1075048]
Result string: Not met

Query string: Form field: YAP1 (% UTC) at least 10 % UTC? Entry: 1076456 (antisense k[5mC]*kT*kT*dT*dA*dA*dA*dG*dT*dG*dT*dA*dT*kG*kT*k[5mC]) [Compound 1076456]
Result string: Not met
